- test.protocol: Pharmacokinetic study in beagle dogs
- condition.notes: both, beagle, dog, plasma, inhaled or intranasal, 1.25 mg
parameter.measured: Cmax (ng/mL)
Answers are plain numbers, in ng/mL.

Could you tell me which Cmax is on file for Cc1ccc(-c2nc3ccc(C)cn3c2CC(=O)N(C)C)cc1 ?
13

----------
- test.protocol: Pharmacokinetic study in beagle dogs
- condition.notes: both, beagle, dog, plasma, po, 5 mg
parameter.measured: AUC(0-t) (ng·h/mL)
Numbers only, in ng·h/mL.

Name the reported AUC(0-t) value associated with the compound Cc1ccc(-c2nc3ccc(C)cn3c2CC(=O)N(C)C)cc1
30.6

----------
- test.protocol: Pharmacokinetic study in beagle dogs
- condition.notes: both, beagle, dog, plasma, po, 10 mg, Tmax, beagle dogs, oral administration (marketed tablet, Stilnox), 10 mg/dog
parameter.measured: Tmax (min)
Answers are plain numbers, in min.

I am curious: what Tmax value has been reported for Cc1ccc(-c2nc3ccc(C)cn3c2CC(=O)N(C)C)cc1 ?
25.8

----------
- test.protocol: Pharmacokinetic study in beagle dogs
- condition.notes: both, beagle, dog, plasma, po, 5 mg
- Method: Eight beagle dogs (4 male and 4 female) participated in the study. […] Water was given ad libitum throughout the study. Food was provided 4 hours post-dose. Blood samples were collected at pre-dose (0 min) and at 3, 6, 9, 12, 15, 20, 30, 45 minutes; and at 1, 1.5, 2, 3, 4, 6, 8, 24 hours post-dose. After plasma-separation process, the samples were analyzed by a validated LC-MS/MS method.
parameter.measured: AUC(0-inf) (ng·h/mL)
Answers are plain numbers, in ng·h/mL.

For Cc1ccc(-c2nc3ccc(C)cn3c2CC(=O)N(C)C)cc1 , what is its reported AUC(0-inf)?
30.7

----------
- test.protocol: Pharmacokinetic study in beagle dogs
- condition.notes: both, beagle, dog, plasma, inhaled or intranasal, 5 mg
parameter.measured: Cmax (ng/mL)
Numbers only, in ng/mL.

Could you share which Cmax value was measured for Cc1ccc(-c2nc3ccc(C)cn3c2CC(=O)N(C)C)cc1 [Zolpidem] ?
33.3

----------
- test.protocol: Pharmacokinetic study in beagle dogs
- condition.notes: both, beagle, dog, plasma, inhaled or intranasal, 1.25 mg, Tmax, beagle dogs, intranasal administration (ZLP-B01), 1.25 mg/dog
parameter.measured: Tmax
Answer with the figure and its unit, nothing else.

Find the recorded Tmax belonging to Cc1ccc(-c2nc3ccc(C)cn3c2CC(=O)N(C)C)cc1 and report it.
8.4 min

----------
- test.protocol: Pharmacokinetic study in beagle dogs
- condition.notes: both, beagle, dog, plasma, po, 5 mg, Tmax, beagle dogs, oral administration (marketed tablet, Stilnox), 5 mg/dog
parameter.measured: Tmax (min)
Give bare numbers, in min.

Dear colleague, I am looking for the recorded Tmax of the following compound: Cc1ccc(-c2nc3ccc(C)cn3c2CC(=O)N(C)C)cc1
41.4

----------
- test.protocol: Pharmacokinetic study in beagle dogs
- condition.notes: both, beagle, dog, plasma, inhaled or intranasal, 2.5 mg, Tmax, beagle dogs, intranasal administration (ZLP-B01), 2.5 mg/dog
parameter.measured: Tmax (min)
One number for each entry, in min.

So what does the record say about Tmax for Cc1ccc(-c2nc3ccc(C)cn3c2CC(=O)N(C)C)cc1 ?
8.4

----------
- test.protocol: Pharmacokinetic study in beagle dogs
- condition.notes: both, beagle, dog, plasma, inhaled or intranasal, 1.25 mg
parameter.measured: MRT (h)
Give bare numbers, in h.

Give its MRT value. Item: Cc1ccc(-c2nc3ccc(C)cn3c2CC(=O)N(C)C)cc1
1.13

----------
- test.protocol: Pharmacokinetic study in beagle dogs
- condition.notes: both, beagle, dog, plasma, inhaled or intranasal, 2.5 mg
parameter.measured: AUC(0-inf) (ng·h/mL)
Answers are plain numbers, in ng·h/mL.

# query: AUC(0-inf) of entry Cc1ccc(-c2nc3ccc(C)cn3c2CC(=O)N(C)C)cc1
22.4

----------
- test.protocol: Pharmacokinetic study in beagle dogs
- condition.notes: both, beagle, dog, plasma, inhaled or intranasal, 5 mg
- Protocol: Eight beagle dogs (4 male and 4 female) participated in the study. […] Water was given ad libitum throughout the study. Food was provided 4 hours post-dose. Blood samples were collected at pre-dose (0 min) and at 3, 6, 9, 12, 15, 20, 30, 45 minutes; and at 1, 1.5, 2, 3, 4, 6, 8, 24 hours post-dose. After plasma-separation process, the samples were analyzed by a validated LC-MS/MS method.
parameter.measured: AUC(0-inf) (ng·h/mL)
Answers are plain numbers, in ng·h/mL.

Could you tell me which AUC(0-inf) is on file for Cc1ccc(-c2nc3ccc(C)cn3c2CC(=O)N(C)C)cc1 ?
38

----------
- test.protocol: Pharmacokinetic study in beagle dogs
- condition.notes: both, beagle, dog, plasma, inhaled or intranasal, 1.25 mg
parameter.measured: half-life (min)
One number for each entry, in min.

For Cc1ccc(-c2nc3ccc(C)cn3c2CC(=O)N(C)C)cc1 , what is its reported half-life?
57

----------
- test.protocol: Pharmacokinetic study in beagle dogs
- condition.notes: both, beagle, dog, plasma, po, 10 mg
parameter.measured: Cmax (ng/mL)
Numbers only, in ng/mL.

What does the record list as Cmax for Cc1ccc(-c2nc3ccc(C)cn3c2CC(=O)N(C)C)cc1 ?
128

----------
- test.protocol: Pharmacokinetic study in beagle dogs
- condition.notes: both, beagle, dog, plasma, inhaled or intranasal, 2.5 mg
parameter.measured: AUC(0-t) (ng·h/mL)
Give bare numbers, in ng·h/mL.

What value of measured AUC(0-t) is listed for Cc1ccc(-c2nc3ccc(C)cn3c2CC(=O)N(C)C)cc1 ?
22.2

----------
- test.protocol: Pharmacokinetic study in beagle dogs
- condition.notes: both, beagle, dog, plasma, inhaled or intranasal, 2.5 mg
- Description: Eight beagle dogs (4 male and 4 female) participated in the study. […] Water was given ad libitum throughout the study. Food was provided 4 hours post-dose. Blood samples were collected at pre-dose (0 min) and at 3, 6, 9, 12, 15, 20, 30, 45 minutes; and at 1, 1.5, 2, 3, 4, 6, 8, 24 hours post-dose. After plasma-separation process, the samples were analyzed by a validated LC-MS/MS method.
parameter.measured: Cmax (ng/mL)
Answers are plain numbers, in ng/mL.

What Cmax value was documented for this compound, Cc1ccc(-c2nc3ccc(C)cn3c2CC(=O)N(C)C)cc1 ?
22

----------
- test.protocol: Pharmacokinetic study in beagle dogs
- condition.notes: both, beagle, dog, plasma, po, 5 mg
parameter.measured: MRT (h)
Numbers only, in h.

Return reported MRT; argument: Cc1ccc(-c2nc3ccc(C)cn3c2CC(=O)N(C)C)cc1 [Zolpidem]
1.67

----------
- test.protocol: Pharmacokinetic study in beagle dogs
- condition.notes: both, beagle, dog, plasma, inhaled or intranasal, 2.5 mg
parameter.measured: half-life (min)
Numbers only, in min.

May I ask what half-life has been recorded for Cc1ccc(-c2nc3ccc(C)cn3c2CC(=O)N(C)C)cc1 [Zolpidem] ?
43.8

----------
- test.protocol: Pharmacokinetic study in beagle dogs
- condition.notes: both, beagle, dog, plasma, po, 10 mg
parameter.measured: MRT

Returns the measured MRT for the input molecule. Input: Cc1ccc(-c2nc3ccc(C)cn3c2CC(=O)N(C)C)cc1
1.33 h

----------
- test.protocol: Pharmacokinetic study in beagle dogs
- condition.notes: both, beagle, dog, plasma, po, 10 mg
parameter.measured: AUC(0-inf) (ng·h/mL)
Answers are plain numbers, in ng·h/mL.

For the compound shown here, Cc1ccc(-c2nc3ccc(C)cn3c2CC(=O)N(C)C)cc1 , give the reported AUC(0-inf).
121

----------
- test.protocol: Pharmacokinetic study in beagle dogs
- condition.notes: both, beagle, dog, plasma, inhaled or intranasal, 1.25 mg
parameter.measured: AUC(0-inf) (ng·h/mL)
Give bare numbers, in ng·h/mL.

// returns reported AUC(0-inf) for input Cc1ccc(-c2nc3ccc(C)cn3c2CC(=O)N(C)C)cc1
12.9

----------
- test.protocol: Pharmacokinetic study in beagle dogs
- condition.notes: both, beagle, dog, plasma, po, 5 mg
- Procedure: Eight beagle dogs (4 male and 4 female) participated in the study. […] Water was given ad libitum throughout the study. Food was provided 4 hours post-dose. Blood samples were collected at pre-dose (0 min) and at 3, 6, 9, 12, 15, 20, 30, 45 minutes; and at 1, 1.5, 2, 3, 4, 6, 8, 24 hours post-dose. After plasma-separation process, the samples were analyzed by a validated LC-MS/MS method.
parameter.measured: half-life (min)
One number for each entry, in min.

# lookup: half-life of Cc1ccc(-c2nc3ccc(C)cn3c2CC(=O)N(C)C)cc1
57.6

----------
- test.protocol: Pharmacokinetic study in beagle dogs
- condition.notes: both, beagle, dog, plasma, po, 5 mg
parameter.measured: Cmax (ng/mL)
Answers are plain numbers, in ng/mL.

Tell me the measured Cmax of Cc1ccc(-c2nc3ccc(C)cn3c2CC(=O)N(C)C)cc1 , please.
25.5
